The reported measurements were obtained from patent US20090118184A1.

Tgt: T1, factor VIIIa A1/A3C1C2 dimer, wild type (human, UniProt P00451 20-391; P00451 1709-2351)
T1 sequence 1: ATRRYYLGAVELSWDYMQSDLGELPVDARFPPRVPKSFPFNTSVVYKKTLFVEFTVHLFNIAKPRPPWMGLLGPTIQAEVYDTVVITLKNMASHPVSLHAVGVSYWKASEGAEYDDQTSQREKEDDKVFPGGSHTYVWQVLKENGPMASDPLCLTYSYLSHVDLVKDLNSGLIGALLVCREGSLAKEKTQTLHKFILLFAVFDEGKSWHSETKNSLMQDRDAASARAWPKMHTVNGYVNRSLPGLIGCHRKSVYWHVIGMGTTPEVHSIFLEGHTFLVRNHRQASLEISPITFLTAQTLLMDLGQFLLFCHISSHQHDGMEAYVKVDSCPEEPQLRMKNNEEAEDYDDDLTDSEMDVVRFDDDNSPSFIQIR
T1 sequence 2: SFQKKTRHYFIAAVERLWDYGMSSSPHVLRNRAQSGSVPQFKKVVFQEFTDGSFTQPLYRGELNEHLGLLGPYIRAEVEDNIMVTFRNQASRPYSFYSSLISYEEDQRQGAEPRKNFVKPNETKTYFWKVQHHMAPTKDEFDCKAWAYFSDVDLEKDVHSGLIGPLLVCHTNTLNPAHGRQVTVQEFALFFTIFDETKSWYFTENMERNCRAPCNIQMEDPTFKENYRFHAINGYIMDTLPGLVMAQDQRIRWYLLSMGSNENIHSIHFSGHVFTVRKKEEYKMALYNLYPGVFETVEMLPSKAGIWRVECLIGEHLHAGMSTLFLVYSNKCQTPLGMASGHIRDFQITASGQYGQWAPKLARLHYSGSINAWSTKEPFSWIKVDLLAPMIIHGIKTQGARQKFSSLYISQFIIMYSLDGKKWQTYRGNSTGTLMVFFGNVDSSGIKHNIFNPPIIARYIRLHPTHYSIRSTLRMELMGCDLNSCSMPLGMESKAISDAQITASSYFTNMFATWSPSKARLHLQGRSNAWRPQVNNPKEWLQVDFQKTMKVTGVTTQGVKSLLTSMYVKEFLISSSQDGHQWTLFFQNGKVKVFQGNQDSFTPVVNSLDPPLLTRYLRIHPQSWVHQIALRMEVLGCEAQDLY
Procedure summary: cell-based or functional assay
Measure name: Factor VIIIa decay rate, FIXa (+)

1. factor VIIIa A2 subunit, wild type (other) SVAKKHPKTWVHYIAAEEEDWDYAPLVLAPDDRSYKSQYLNNGPQRIGRKYKKVRFMAYTDETFKTREAIQHESGILGPLLYGEVGDTLLIIFKNQASRPYNIYPHGITDVRPLYSRRLPKGVKHLKDFPILPGEIFKYKWTVTVEDGPTKSDPRCLTRYYSSFVNMERDLASGLIGPLLICYKESVDQRGNQIMSDKRNVILFSVFDENRSWYLTENIQRFLPNPAGVQLEDPEFQASNIMHSINGYVFDSLQLSVCLHEVAYWYILSIGAQTDFLSVFFSGYTFKHKMVYEDTLTLFPFSGETVFMSMENPGLWILGCHNSDFRNRGMTALLKVSSCDKNTGDYYEDSYEDISAYLLSKNNAIEPR = 0.0113 min⁻¹
2. factor VIIIa A2 subunit, R531A (other) SVAKKHPKTWVHYIAAEEEDWDYAPLVLAPDDRSYKSQYLNNGPQRIGRKYKKVRFMAYTDETFKTREAIQHESGILGPLLYGEVGDTLLIIFKNQASRPYNIYPHGITDVRPLYSRRLPKGVKHLKDFPILPGEIFKYKWTVTVEDGPTKSDPRCLTAYYSSFVNMERDLASGLIGPLLICYKESVDQRGNQIMSDKRNVILFSVFDENRSWYLTENIQRFLPNPAGVQLEDPEFQASNIMHSINGYVFDSLQLSVCLHEVAYWYILSIGAQTDFLSVFFSGYTFKHKMVYEDTLTLFPFSGETVFMSMENPGLWILGCHNSDFRNRGMTALLKVSSCDKNTGDYYEDSYEDISAYLLSKNNAIEPR = 0.0758 min⁻¹
